The measurements presented in this section are drawn from paper PMC11929449.

molecular target: FLAG-tagged wild-type human angiotensin II type I receptor (FLAG-AT1R) (Homo sapiens, UniProt P30556)
Sequence (P30556 whole entry): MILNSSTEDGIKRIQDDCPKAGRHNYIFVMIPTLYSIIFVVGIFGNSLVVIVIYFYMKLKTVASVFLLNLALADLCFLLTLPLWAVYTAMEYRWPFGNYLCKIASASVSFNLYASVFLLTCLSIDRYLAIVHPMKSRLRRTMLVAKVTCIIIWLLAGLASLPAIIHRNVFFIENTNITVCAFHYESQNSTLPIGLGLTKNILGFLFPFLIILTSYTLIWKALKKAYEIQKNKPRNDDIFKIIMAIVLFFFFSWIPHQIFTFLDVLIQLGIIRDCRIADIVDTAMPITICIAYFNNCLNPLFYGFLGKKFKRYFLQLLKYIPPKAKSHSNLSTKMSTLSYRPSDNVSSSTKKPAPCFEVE
quantity.name: binding result

>>> assay_result("AT210 (VHH) VHH: QVQLQESGGGLVQAGGSLRLSCAASGTISSWSFMGWYRQAPGKEREFVATIAPGSSTNYADSVKGRFTISRDNAKNTVYLQMNSLKPEDTAVYYCAVYYGVPRFHVYWGQGTQVTVSS")
"binds"
>>> assay_result("AT213 (VHH) VHH: QVQLQESGGGLVQAGGSLRLSCAASGYIFYGATMGWYRQAPGKEREFVAGINYGGSTNYADSVKGRFTISRDNAKNTVYLQMNSLKPEDTAVYYCAVWDTYAQRRSSYFVYWGQGTQVTVSS")
"binds"
>>> assay_result("AT212 (VHH) VHH: QVQLQESGGGLVQAGGSLRLSCAASGSISNYKYMGWYRQAPGKERELVATIGGGATTNYADSVKGRFTISRDNAKNTVYLQMNSLKPEDTAVYYCAAVRAGYSLYYPYFYYWGQGTQVTVSS")
"binds"
